- Condition: in water, 313.15 K
Metric: solubility (mole fraction)
Give only the figure.

Dear colleague, I am looking for the recorded solubility (mole fraction) of the following compound: C=C1C[C@]23C[C@H]1CC[C@H]2[C@@]12CC[C@H](O)[C@@](C)(C(=O)O1)[C@H]2[C@@H]3C(=O)O
5.3e-05

###

- Condition: in acetone, 283.15 K
Metric: solubility (mole fraction)
Reply with the value as a number alone.

Which solubility (mole fraction) is listed for C=C1C[C@]23C[C@H]1CC[C@H]2[C@@]12CC[C@H](O)[C@@](C)(C(=O)O1)[C@H]2[C@@H]3C(=O)O ?
0.057

###

- Condition: in water, 278.15 K
Metric: solubility (mole fraction)
Answer with the value's number alone.

Sample C=C1C[C@]23C[C@H]1CC[C@H]2[C@@]12CC[C@H](O)[C@@](C)(C(=O)O1)[C@H]2[C@@H]3C(=O)O — what was its solubility (mole fraction)?
9e-06

###

- Condition: in isopropanol, 293.15 K
Metric: solubility (mole fraction)
Just the number, please, no unit attached.

Quick one: solubility (mole fraction) of C=C1C[C@]23C[C@H]1CC[C@H]2[C@@]12CC[C@H](O)[C@@](C)(C(=O)O1)[C@H]2[C@@H]3C(=O)O ?
0.0859

###

- Condition: in isopropanol, 323.15 K
Metric: solubility (mole fraction)
Could you keep your reply to the number by itself?

Any idea what solubility (mole fraction) was measured for C=C1C[C@]23C[C@H]1CC[C@H]2[C@@]12CC[C@H](O)[C@@](C)(C(=O)O1)[C@H]2[C@@H]3C(=O)O ?
0.123

###

- Condition: in isopropanol, 308.15 K
Metric: solubility (mole fraction)
Please give only the number in your answer, with no unit.

# solubility (mole fraction) lookup, item C=C1C[C@]23C[C@H]1CC[C@H]2[C@@]12CC[C@H](O)[C@@](C)(C(=O)O1)[C@H]2[C@@H]3C(=O)O
0.103

###

- Condition: in isopropanol, 298.15 K
Metric: solubility (mole fraction)
Write the number on its own, no unit after it.

Which solubility (mole fraction) is listed for C=C1C[C@]23C[C@H]1CC[C@H]2[C@@]12CC[C@H](O)[C@@](C)(C(=O)O1)[C@H]2[C@@H]3C(=O)O ?
0.0916

###

- Condition: in ethyl acetate, 293.15 K
Metric: solubility (mole fraction)
Enter the number alone.

Which solubility (mole fraction) reading was recorded for the compound C=C1C[C@]23C[C@H]1CC[C@H]2[C@@]12CC[C@H](O)[C@@](C)(C(=O)O1)[C@H]2[C@@H]3C(=O)O ?
0.0157

###

- Condition: in ethyl acetate, 328.15 K
Metric: solubility (mole fraction)
# answer = number (no unit)

Can you look up the measured solubility (mole fraction) of C=C1C[C@]23C[C@H]1CC[C@H]2[C@@]12CC[C@H](O)[C@@](C)(C(=O)O1)[C@H]2[C@@H]3C(=O)O for me?
0.0325

###

- Condition: in ethyl acetate, 333.15 K
Metric: solubility (mole fraction)
A bare number is all that is needed in reply.

For C=C1C[C@]23C[C@H]1CC[C@H]2[C@@]12CC[C@H](O)[C@@](C)(C(=O)O1)[C@H]2[C@@H]3C(=O)O , what is its reported solubility (mole fraction)?
0.0357

###

- Condition: in acetone, 303.15 K
Metric: solubility (mole fraction)

Any idea what its solubility (mole fraction) is? The compound is C=C1C[C@]23C[C@H]1CC[C@H]2[C@@]12CC[C@H](O)[C@@](C)(C(=O)O1)[C@H]2[C@@H]3C(=O)O
0.0759

###

- Condition: in water, 308.15 K
Metric: solubility (mole fraction)
Could you respond with only the numeric value?

Give the measured solubility (mole fraction) of C=C1C[C@]23C[C@H]1CC[C@H]2[C@@]12CC[C@H](O)[C@@](C)(C(=O)O1)[C@H]2[C@@H]3C(=O)O .
4.4e-05

###

- Condition: in isopropanol, 278.15 K
Metric: solubility (mole fraction)
Lab note: write the figure by itself, no unit.

I am curious: what solubility (mole fraction) value has been reported for C=C1C[C@]23C[C@H]1CC[C@H]2[C@@]12CC[C@H](O)[C@@](C)(C(=O)O1)[C@H]2[C@@H]3C(=O)O ?
0.0691

###

- Condition: in ethyl acetate, 318.15 K
Metric: solubility (mole fraction)
Keep the answer to the number alone.

Query: solubility (mole fraction); subject: C=C1C[C@]23C[C@H]1CC[C@H]2[C@@]12CC[C@H](O)[C@@](C)(C(=O)O1)[C@H]2[C@@H]3C(=O)O
0.0265

###

- Condition: in ethanol, 298.15 K
Metric: solubility (mole fraction)
Give your answer as a number; write no unit.

Form field: reported solubility (mole fraction) of C=C1C[C@]23C[C@H]1CC[C@H]2[C@@]12CC[C@H](O)[C@@](C)(C(=O)O1)[C@H]2[C@@H]3C(=O)O
0.00133

###

- Condition: in acetonitrile, 278.15 K
Metric: solubility (mole fraction)
Please respond with just the number, no unit label.

Which measured solubility (mole fraction) value corresponds to C=C1C[C@]23C[C@H]1CC[C@H]2[C@@]12CC[C@H](O)[C@@](C)(C(=O)O1)[C@H]2[C@@H]3C(=O)O ?
0.00391

###

- Condition: in methanol, 298.15 K
Metric: solubility (mole fraction)
Give the figure by itself; no unit, no explanation.

I would be grateful if you could share the reported solubility (mole fraction) for C=C1C[C@]23C[C@H]1CC[C@H]2[C@@]12CC[C@H](O)[C@@](C)(C(=O)O1)[C@H]2[C@@H]3C(=O)O .
0.0705

###

- Condition: in ethyl acetate, 278.15 K
Metric: solubility (mole fraction)
Please give the numeric answer without any surrounding text.

Suppose we examine the compound C=C1C[C@]23C[C@H]1CC[C@H]2[C@@]12CC[C@H](O)[C@@](C)(C(=O)O1)[C@H]2[C@@H]3C(=O)O ; what solubility (mole fraction) value has been reported?
0.0105

###

- Condition: in acetone, 298.15 K
Metric: solubility (mole fraction)
I'd appreciate a reply containing only the number, no unit.

Which solubility (mole fraction) value is on record for C=C1C[C@]23C[C@H]1CC[C@H]2[C@@]12CC[C@H](O)[C@@](C)(C(=O)O1)[C@H]2[C@@H]3C(=O)O ?
0.0692

###

- Condition: in ethanol, 278.15 K
Metric: solubility (mole fraction)
Just the number, please, no unit attached.

Consider the compound C=C1C[C@]23C[C@H]1CC[C@H]2[C@@]12CC[C@H](O)[C@@](C)(C(=O)O1)[C@H]2[C@@H]3C(=O)O and give its measured solubility (mole fraction).
0.000809

###

- Condition: in ethanol, 293.15 K
Metric: solubility (mole fraction)
Please give the numeric answer without any surrounding text.

Fill in the blank: the reported solubility (mole fraction) of C=C1C[C@]23C[C@H]1CC[C@H]2[C@@]12CC[C@H](O)[C@@](C)(C(=O)O1)[C@H]2[C@@H]3C(=O)O is ____.
0.00118

###

- Condition: in n-butanol, 278.15 K
Metric: solubility (mole fraction)
Enter a number only.

Param item = C=C1C[C@]23C[C@H]1CC[C@H]2[C@@]12CC[C@H](O)[C@@](C)(C(=O)O1)[C@H]2[C@@H]3C(=O)O ; retrieve measured solubility (mole fraction).
0.0588

###

- Condition: in n-butanol, 333.15 K
Metric: solubility (mole fraction)
Note: the reply should be a number with no unit written.

Query (compound): C=C1C[C@]23C[C@H]1CC[C@H]2[C@@]12CC[C@H](O)[C@@](C)(C(=O)O1)[C@H]2[C@@H]3C(=O)O ; field requested: solubility (mole fraction)
0.119

###

- Condition: in ethanol, 283.15 K
Metric: solubility (mole fraction)
Answer with the value's number alone.

Which solubility (mole fraction) is reported for this molecule? C=C1C[C@]23C[C@H]1CC[C@H]2[C@@]12CC[C@H](O)[C@@](C)(C(=O)O1)[C@H]2[C@@H]3C(=O)O
0.000911

###

- Condition: in acetone, 278.15 K
Metric: solubility (mole fraction)
Give the value as a plain number.

State the recorded solubility (mole fraction) for this entry: C=C1C[C@]23C[C@H]1CC[C@H]2[C@@]12CC[C@H](O)[C@@](C)(C(=O)O1)[C@H]2[C@@H]3C(=O)O
0.053

###

- Condition: in methanol, 323.15 K
Metric: solubility (mole fraction)
Please respond with just the number, no unit label.

Quick one: solubility (mole fraction) of C=C1C[C@]23C[C@H]1CC[C@H]2[C@@]12CC[C@H](O)[C@@](C)(C(=O)O1)[C@H]2[C@@H]3C(=O)O ?
0.101

###

- Condition: in isopropanol, 318.15 K
Metric: solubility (mole fraction)
Answer with the value's number alone.

Given C=C1C[C@]23C[C@H]1CC[C@H]2[C@@]12CC[C@H](O)[C@@](C)(C(=O)O1)[C@H]2[C@@H]3C(=O)O , state its recorded solubility (mole fraction).
0.12

Data origin, for the record: BigSolDB 2.1
